B1: Hairpin Ribozyme (parent)
chain: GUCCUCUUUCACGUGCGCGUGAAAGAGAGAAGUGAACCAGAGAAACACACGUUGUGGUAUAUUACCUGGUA

Variants of: B1
Experiment: self-cleavage, relative activity (ratio to wild type); higher = more cleavage; co-transcriptional
Endpoint name: self-cleavage
Just the number, please.

{"columns": ["Sequence", "Endpoint name", "Endpoint value"],
 "data": [
  ["GUCCUCUGUCACGUGCGCGUGAAAGAGAGAAGUGAACCAGAGAAACACACGUUGUGGUAUAUUUCCUGGUA", "self-cleavage", 0.146],
  ["GUCCUCUUUCACGUGCGCGUGAAAGAGAGAAUUGAACCACAGAAACACACGUUGUGGUAUAUUACCUGGUA", "self-cleavage", 0.0975],
  ["GUCCUCUUUCACGUGCGCGUGAAAGAGACAAGUGAACCAGAGAUACACACGUUGUGGUAUAUUACCUGGUA", "self-cleavage", 0.18],
  ["GUCCUCUUUCACGUGCGCUUGAAAGAGAUAAGUGAACCAGAGAAACACACGUUGUGGUAUAUUACCUGGUA", "self-cleavage", 0.14],
  ["GUCCUCUUUCACGUGCGGGUGAAAGAGAGAAGUGAACCAGAGAAACACACGUUGUGGUAUAUUACCUGGUG", "self-cleavage", 0.932],
  ["GUCCUCUUUCACGUGCGCGUGAAACAGAGAAGUGAACCAGAGAAACACACGUUGUGGUAUAUUACCUUGUA", "self-cleavage", 0.206],
  ["CUCCUCUUUCACGUGCGCGUGAAAGAGAGAAGUGAACCAGAGAAACACAGGUUGUGGUAUAUUACCUGGUA", "self-cleavage", 0.171],
  ["GUCAUCUUUCACGUGCGCGUGAAAGAGAGAAGUGAACCAGAGAAACACACGUUGUGGUUUAUUACCUGGUA", "self-cleavage", 0.0921],
  ["GUUCUCUUUCACGUGCGCGUGAAAGAGAGAAGUGAACCAGAGAAACACACGUUGUGGUAUAUUACCUGGCA", "self-cleavage", 0.351],
  ["GUCCUCUUCCACGUGCGCGUGAAAGGGAGAAGUGAACCAGAGAAACACACGUUGUGGUAUAUUACCUGGUA", "self-cleavage", 0.747]
]}

(Q) Which self-cleavage value is on record for `GUCCUCUUUCACGUGCGCGUGAAAGAGAGAAGUGAACCAGAGAAACACACGUUGUGUUAUAUGACCUGGUA` ?
(A) 0.291

(Q) Which self-cleavage value is on record for `GUCCUCUUUCACGUGCGCGUGAAAGAGAGAAGUGAACCAGAGAAACACACGUGGUUGUAUAUUACCUGGUA` ?
(A) 0.223

(Q) Which self-cleavage value is on record for `GUUCUCUUUCCCGUGCGCGUGAAAGAGAGAAGUGAACCAGAGAAACACACGUUGUGGUAUAUUACCUGGUA` ?
(A) 0.402

(Q) Which self-cleavage value is on record for `GUCCUCUUUCACGUGCGCGUGAAAGAGAGAAGUGAACCAGAGAAACACACGUAGUGUUAUAUUACCUGGUA` ?
(A) 0.181

(Q) Which self-cleavage value is on record for `GUCCUCUUUGACGUGCGCGUGAGAGAGAGAAGUGAACCAGAGAAACACACGUUGUGGUAUAUUACCUGGUA` ?
(A) 0.419

(Q) Which self-cleavage value is on record for `GUCCUCUUUCACGUGCGCGAGAAAGAGAGAAGUGAACCAGAGAAGCACACGUUGUGGUAUAUUACCUGGUA` ?
(A) 0.183
